Kindly supply the reported inhibition values for the records listed here.
TARGET_SYSTEM: Protease (Human immunodeficiency virus 1) (UniProt Q9YQ12)
ASSAY_INFO: Competitive inhibition of HIV1 protease using fluorogenic substrate DABCYL- -abu-SQNYPIVQ-EDANS assessed as dissociation for dimer-inhibitor complex at 28 uM at pH 4.7 by fluorimetric assay
Numbers only, in %.

CNCC(=O)Nc1cc2ccc(OCCCC(=O)NCCCC[C@H](NC(=O)OC(C)(C)C)C(=O)NNC(=O)c3cc(NC(C)=O)ccc3OC)cc2cc1OCCCC(=O)NCCCC[C@H](NC(=O)OC(C)(C)C)C(=O)NNC(=O)c1cc(NC(C)=O)ccc1OC = 18
COc1ccc(NC(C)=O)cc1C(=O)NNC(=O)[C@H](CCCCNC(=O)CCCOc1ccc2cc(CCCN(C)C)c(OCCCC(=O)NCCCC[C@H](NC(=O)OC(C)(C)C)C(=O)NNC(=O)c3cc(NC(C)=O)ccc3OC)cc2c1)NC(=O)OC(C)(C)C = 0
COc1ccc(NC(C)=O)cc1C(=O)NNC(=O)[C@H](CCCCNC(=O)CCCOc1ccc2cc(CCCN)c(OCCCC(=O)NCCCC[C@H](NC(=O)OC(C)(C)C)C(=O)NNC(=O)c3cc(NC(C)=O)ccc3OC)cc2c1)NC(=O)OC(C)(C)C = 35
COc1ccc(NC(C)=O)cc1C(=O)NNC(=O)[C@H](CCCCNC(=O)CCCOc1ccc2cc(NC(=O)CN3CCNCC3)c(OCCCC(=O)NCCCC[C@H](NC(=O)OC(C)(C)C)C(=O)NNC(=O)c3cc(NC(C)=O)ccc3OC)cc2c1)NC(=O)OC(C)(C)C = 18

Query molecule follows.
"COc1ccc(NC(C)=O)cc1C(=O)NNC(=O)[C@H](CCCCNC(=O)CCCOc1ccc2cc(NC(=O)CN3CCN(C(=O)OCc4ccccc4)CC3)c(OCCCC(=O)NCCCC[C@H](NC(=O)OC(C)(C)C)C(=O)NNC(=O)c3cc(NC(C)=O)ccc3OC)cc2c1)NC(=O)OC(C)(C)C" yielded inhibition of 0

###

TARGET_SYSTEM: Protease (Human immunodeficiency virus 1)
ASSAY_INFO: Dimerziation inhibition of HIV1 wild type protease using fluorogenic substrate DABCYL- -abu-SQNYPIVQ-EDANS at pH 4.7 by fluorimetric assay
pKi: −log10 of the molar value.
Threshold check on pKi: at or above 6 gives yes, strictly below gives no.

COc1ccc(NC(C)=O)cc1C(=O)NNC(=O)[C@@H](NC(=O)CCCOc1ccc2ccc(OCCCC(=O)N[C@H](C(=O)NNC(=O)c3cc(NC(C)=O)ccc3OC)C(C)C)cc2c1)C(C)C = yes
COc1ccc(NC(C)=O)cc1C(=O)NNC(=O)[C@@H](NC(=O)CCCOc1ccc2cc(NCC(O)CO)c(OCCCC(=O)N[C@H](C(=O)NNC(=O)c3cc(NC(C)=O)ccc3OC)C(C)C)cc2c1)C(C)C (some centres not stated) = yes
COc1ccc(NC(C)=O)cc1C(=O)NNC(=O)[C@@H](NC(=O)CCCOc1ccc2cc(N)c(OCCCC(=O)N[C@H](C(=O)NNC(=O)c3cc(NC(C)=O)ccc3OC)C(C)C)cc2c1)C(C)C = yes
COc1ccc(NC(C)=O)cc1C(=O)NNC(=O)[C@H](CCCCNC(=O)CCCOc1ccc2ccc(OCCCC(=O)NCCCC[C@H](NC(=O)OC(C)(C)C)C(=O)NNC(=O)c3cc(NC(C)=O)ccc3OC)cc2c1)NC(=O)OC(C)(C)C = yes
COc1ccc(NC(C)=O)cc1C(=O)NNC(=O)[C@@H](NC(=O)CCCOc1ccc2cc(NCC3COC(C)(C)O3)c(OCCCC(=O)N[C@H](C(=O)NNC(=O)c3cc(NC(C)=O)ccc3OC)C(C)C)cc2c1)C(C)C (some centres not stated) = no

Ask | pKi >= 6 for COc1ccc(NC(C)=O)cc1C(=O)NNC(=O)[C@H](CCCCNC(=O)CCCOc1ccc2cc(NCC(O)CO)c(OCCCC(=O)NCCCC[C@H](NC(=O)OC(C)(C)C)C(=O)NNC(=O)c3cc(NC(C)=O)ccc3OC)cc2c1)NC(=O)OC(C)(C)C (some centres not stated) ?
Reply | no

Ask | Can "COc1ccc(NC(C)=O)cc1C(=O)NNC(=O)[C@H](CCCCNC(=O)CCCOc1ccc2cc(N)c(OCCCC(=O)NCCCC[C@H](NC(=O)OC(C)(C)C)C(=O)NNC(=O)c3cc(NC(C)=O)ccc3OC)cc2c1)NC(=O)OC(C)(C)C" be said to have pKi at or above 6?
Reply | yes

###

Would you kindly list Retention_time for each of these compounds?
ASSAY_INFO: Retention time of the compound
Assay type: physicochemical
Numbers only, in min.

Sample answers from the record:
CNCC(=O)Nc1cc2ccc(OCCCC(=O)NCCCC[C@H](NC(=O)OC(C)(C)C)C(=O)NNC(=O)c3cc(NC(C)=O)ccc3OC)cc2cc1OCCCC(=O)NCCCC[C@H](NC(=O)OC(C)(C)C)C(=O)NNC(=O)c1cc(NC(C)=O)ccc1OC = 11.1
COc1ccc(NC(C)=O)cc1C(=O)NNC(=O)[C@@H](NC(=O)CCCOc1ccc2cc(NCC3COC(C)(C)O3)c(OCCCC(=O)N[C@H](C(=O)NNC(=O)c3cc(NC(C)=O)ccc3OC)C(C)C)cc2c1)C(C)C (stereo not given in full) = 14.2

For every record below, what is its Retention_time?
1. COc1ccc(NC(C)=O)cc1C(=O)NNC(=O)[C@@H](NC(=O)CCCOc1ccc2ccc(OCCCC(=O)N[C@H](C(=O)NNC(=O)c3cc(NC(C)=O)ccc3OC)C(C)C)cc2c1)C(C)C
2. COc1ccc(NC(C)=O)cc1C(=O)NNC(=O)[C@@H](NC(=O)CCCOc1ccc2cc(N)c(OCCCC(=O)N[C@H](C(=O)NNC(=O)c3cc(NC(C)=O)ccc3OC)C(C)C)cc2c1)C(C)C

Reply |
[13.8, 10.6]

Record COc1ccc(NC(C)=O)cc1C(=O)NNC(=O)[C@H](CCCCNC(=O)CCCOc1ccc2cc(NCC3COC(C)(C)O3)c(OCCCC(=O)NCCCC[C@H](NC(=O)OC(C)(C)C)C(=O)NNC(=O)c3cc(NC(C)=O)ccc3OC)cc2c1)NC(=O)OC(C)(C)C (stereo not given in full) , field Retention_time: 15.2

###

ASSAY_INFO: Retention time of the compound
Format: physicochemical
For each entry below, report its Retention_time value.
Give bare numbers, in min.

The examples below pair each entry with its known result.
COc1ccc(NC(C)=O)cc1C(=O)NNC(=O)[C@H](CCCCNC(=O)CCCOc1ccc2cc(N)c(OCCCC(=O)NCCCC[C@H](NC(=O)OC(C)(C)C)C(=O)NNC(=O)c3cc(NC(C)=O)ccc3OC)cc2c1)NC(=O)OC(C)(C)C = 12.2
COc1ccc(NC(C)=O)cc1C(=O)NNC(=O)[C@@H](NC(=O)CCCOc1ccc2cc(NCC(O)CO)c(OCCCC(=O)N[C@H](C(=O)NNC(=O)c3cc(NC(C)=O)ccc3OC)C(C)C)cc2c1)C(C)C (stereo partly specified) = 11.3
COc1ccc(NC(C)=O)cc1C(=O)NNC(=O)[C@H](CCCCNC(=O)CCCOc1ccc2cc(CN)c(OCCCC(=O)NCCCC[C@H](NC(=O)OC(C)(C)C)C(=O)NNC(=O)c3cc(NC(C)=O)ccc3OC)cc2c1)NC(=O)OC(C)(C)C = 11.1

Items follow; give Retention_time for each.
1. COc1ccc(NC(C)=O)cc1C(=O)NNC(=O)[C@H](CCCCNC(=O)CCCOc1ccc2ccc(OCCCC(=O)NCCCC[C@H](NC(=O)OC(C)(C)C)C(=O)NNC(=O)c3cc(NC(C)=O)ccc3OC)cc2c1)NC(=O)OC(C)(C)C
2. COc1ccc(NC(C)=O)cc1C(=O)NNC(=O)[C@H](CCCCNC(=O)CCCOc1ccc2cc(NC(=O)CN3CCN(C(=O)OCc4ccccc4)CC3)c(OCCCC(=O)NCCCC[C@H](NC(=O)OC(C)(C)C)C(=O)NNC(=O)c3cc(NC(C)=O)ccc3OC)cc2c1)NC(=O)OC(C)(C)C
3. COc1ccc(NC(C)=O)cc1C(=O)NNC(=O)[C@H](CCCCNC(=O)CCCOc1ccc2cc(CNC(=N)N)c(OCCCC(=O)NCCCC[C@H](NC(=O)OC(C)(C)C)C(=O)NNC(=O)c3cc(NC(C)=O)ccc3OC)cc2c1)NC(=O)OC(C)(C)C

Reply |
[14.8, 13.8, 11.2]
